Origin of the recorded values: PubChem BioAssay

# Procedure Text: TLR3 IRF3 reporter activation blockers – cell-based, poly I:C stimulus, luciferase, 10K MLSCN set, primary screen (AID 602277)
# Condition Parameters: HEK293-TLR3 RL24 IRF3 luciferase reporter, at 10 µM, hits give high values
Listing: inhibition of selected compounds
Just the number in %, nothing appended.

Asked: Quickly give me recorded inhibition for NCC(CC(=O)O)c1ccc(Cl)cc1 (configuration not stated)
Given back: 26.4

Asked: Quickly give me recorded inhibition for `CCN1CCN(Cc2cc(Br)cc(OC)c2O)CC1`
Given back: 5.42

Asked: Quickly give me recorded inhibition for `COc1ccccc1N1CCN(Cc2c(F)cccc2F)CC1`
Given back: 27.3

Asked: Quickly give me recorded inhibition for `CCc1ccc(OCCCN=C(C)c2c(O)n(C)c(=O)n(C)c2=O)cc1`
Given back: 14.8

Asked: Quickly give me recorded inhibition for `CCOc1cc2[nH]c(=S)n(CCCC(=O)N3CCC4(CC3)OCCO4)c(=O)c2cc1OCC`
Given back: 17.4

###

# Assay Target: Dual specificity protein phosphatase 6 (Homo sapiens) (UniProt Q16828)
# Sequence (Q16828 whole entry, looked up): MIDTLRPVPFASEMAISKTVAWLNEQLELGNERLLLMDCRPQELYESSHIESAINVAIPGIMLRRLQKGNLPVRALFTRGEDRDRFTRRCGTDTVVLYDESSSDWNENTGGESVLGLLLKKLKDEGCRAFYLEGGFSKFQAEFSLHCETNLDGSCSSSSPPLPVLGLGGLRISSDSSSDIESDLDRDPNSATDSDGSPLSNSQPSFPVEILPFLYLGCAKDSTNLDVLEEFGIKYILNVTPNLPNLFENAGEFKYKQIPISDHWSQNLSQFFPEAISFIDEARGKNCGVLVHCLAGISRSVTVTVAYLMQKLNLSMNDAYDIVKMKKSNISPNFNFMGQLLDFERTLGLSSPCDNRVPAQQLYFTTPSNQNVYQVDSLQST
# Procedure Text: Primary imaging screen for DUSP6 inhibitors that restore phospho-Erk in transfected HeLa cells, chemical complementation (AID 609);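 further: phospho-Erk level distribution per well compared with pooled transfected vehicle control wells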
# Condition Parameters: HeLa MKP-3 transfected, phospho-Erk imaging KS statistic, at 10 µM, hits give high values
Listing: inhibition of selected compounds
Just the number in %, nothing appended.

Known results for compounds:
{"Compound": "OC(Cc1ccccc1)(c1ccccc1)C1CN2CCC1CC2 (stereo unspecified)", "Assay Target": "Dual specificity protein phosphatase 6 (Homo sapiens) (UniProt Q16828)", "Readout Units": "%", "inhibition": 1.98}
{"Compound": "CC1(C)CC(=O)C(C=NCCN2CCN(C(=O)Cc3ccc(F)cc3)CC2)=C(O)C1", "Assay Target": "Dual specificity protein phosphatase 6 (Homo sapiens) (UniProt Q16828)", "Readout Units": "%", "inhibition": 17.8}
{"Compound": "O=c1[nH]c(O)c(C=NC2CCN(Cc3ccccc3)CC2)c(=O)[nH]1", "Assay Target": "Dual specificity protein phosphatase 6 (Homo sapiens) (UniProt Q16828)", "Readout Units": "%", "inhibition": 4.25}
{"Compound": "O=C(O)CCCc1ccc(N(CCCl)CCCl)cc1", "Assay Target": "Dual specificity protein phosphatase 6 (Homo sapiens) (UniProt Q16828)", "Readout Units": "%", "inhibition": 12.4}
{"Compound": "C=CCn1c(O)c(C=Nc2ccc(N(CC)CC)cc2)c(=O)[nH]c1=O", "Assay Target": "Dual specificity protein phosphatase 6 (Homo sapiens) (UniProt Q16828)", "Readout Units": "%", "inhibition": -1.75}

Here is the next item to consider.
Asked: Quickly give me recorded inhibition for `O=C1NC(=O)C(C/C=C/c2ccccc2)C(=O)N1`
Given back: 16.5

###

# Procedure Text: endothelial E-selectin expression blockers – imaging, HUVEC, immunofluorescence, MLSMR starter and 10KST1 sets, primary screen (AID 487);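 further: signal is fraction of cell area covered by stained E-selectin grains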
# Condition Parameters: HUVEC TNFalpha-induced E-selectin immunofluorescence imaging, at 2 µM; hits give high values
Binary call on inhibition: YES from -30% upward, NO beneath that.

// below: answered compounds
{"Compound": "CC12CCCCC1=[N+]([O-])CN2O (stereo unspecified)", "Class Label": "YES"}
{"Compound": "CCCCc1nc2ccccc2c(=O)n1-c1ccccc1O", "Class Label": "YES"}
{"Compound": "O=C1NC(=O)C(C/C=C/c2ccccc2)C(=O)N1", "Class Label": "YES"}

Asked: Please indicate if the recorded inhibition for CCCCn1c(O)c(C=NC2CCCCC2N)c(=O)[nH]c1=O (stereo unspecified) meets or exceeds -30%.
Given back: NO

Asked: Please indicate if the recorded inhibition for `CCCCn1c(O)c(C(CC)=Nc2cccc(C(=O)O)c2)c(=O)[nH]c1=O` meets or exceeds -30%.
Given back: YES

Asked: Please indicate if the recorded inhibition for `CCOC(=O)c1cc(C)n(CCc2cnc[nH]2)c1C` meets or exceeds -30%.
Given back: NO
